Assay: Terminal half life in Sprague-Dawley rat at 10 mg/kg, iv by LC-MS/MS method
Type: ADME, organism-based
Settings: in vivo, read-out: beta t1/2 (converted)
MEASUREMENT TYPE: half-life (h)

SMILES STRUCTURE	READING
CNC(=O)[C@H](Cc1c[nH]c2ccccc12)NC(=O)[C@@H](CC(=O)NO)CC(C)C	0.25
CNC(=O)[C@H](Cc1c[nH]c2ccccc12)NC(=O)[C@@H](CC(=O)Nc1ccccc1N)CC(C)C	7.88

###

Biological target: Matrix metalloproteinase-9 (Homo sapiens, UniProt P14780)
Sequence (P14780 whole entry): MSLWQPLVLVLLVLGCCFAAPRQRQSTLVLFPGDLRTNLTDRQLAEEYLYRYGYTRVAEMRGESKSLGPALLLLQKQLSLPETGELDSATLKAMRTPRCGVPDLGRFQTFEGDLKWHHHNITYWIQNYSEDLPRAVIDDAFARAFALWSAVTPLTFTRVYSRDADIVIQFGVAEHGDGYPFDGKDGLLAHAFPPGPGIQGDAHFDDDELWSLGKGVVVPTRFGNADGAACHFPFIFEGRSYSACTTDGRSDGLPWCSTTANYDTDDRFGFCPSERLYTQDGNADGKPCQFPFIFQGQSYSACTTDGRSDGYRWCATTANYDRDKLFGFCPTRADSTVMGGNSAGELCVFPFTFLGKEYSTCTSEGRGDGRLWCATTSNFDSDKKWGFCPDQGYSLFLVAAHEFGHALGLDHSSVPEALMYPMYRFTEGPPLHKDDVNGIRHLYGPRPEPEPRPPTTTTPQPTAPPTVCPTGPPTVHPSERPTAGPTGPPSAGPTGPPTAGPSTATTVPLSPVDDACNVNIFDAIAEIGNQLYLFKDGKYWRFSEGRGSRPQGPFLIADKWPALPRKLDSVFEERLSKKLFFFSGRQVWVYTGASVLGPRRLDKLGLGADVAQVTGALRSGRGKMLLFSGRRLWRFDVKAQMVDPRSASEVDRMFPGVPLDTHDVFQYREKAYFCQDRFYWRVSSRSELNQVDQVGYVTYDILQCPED
Assay: Inhibition of human recombinant MMP9 using Mca-Pro-Leu-Gly-Leu-Dpa-Ala-Arg-NH2 as substrate preincubated for 60 mins followed by substrate addition by fluorimetric analysis
MEASUREMENT TYPE: IC50 (nM)

SMILES STRUCTURE	READING
CNC(=O)[C@H](Cc1c[nH]c2ccccc12)NC(=O)[C@@H](CC(=O)Nc1ccc(Br)cc1N)CC(C)C	27.3
CNC(=O)[C@H](Cc1c[nH]c2ccccc12)NC(=O)[C@@H](CC(=O)Nc1ccc(F)cc1N)CC(C)C	7.75
CNC(=O)[C@H](Cc1c[nH]c2ccccc12)NC(=O)[C@@H](CC(=O)Nc1cccc(N)c1)CC(C)C	13.5
CNC(=O)[C@H](Cc1c[nH]c2ccccc12)NC(=O)[C@@H](CC(=O)Nc1ccccc1NC(C)=O)CC(C)C	155

###

Test: Oral bioavailability in Sprague-Dawley rat at 10 mg/kg by LC-MS/MS method
Format: ADME, organism-based
Details: in vivo

SMILES STRUCTURE	U	bioavailability
CNC(=O)[C@H](Cc1c[nH]c2ccccc12)NC(=O)[C@@H](CC(=O)NO)CC(C)C	%	0
CNC(=O)[C@H](Cc1c[nH]c2ccccc12)NC(=O)[C@@H](CC(=O)Nc1ccccc1N)CC(C)C	%	4

###

# IC50 values compiled below
Molecular target: Matrix metalloproteinase-9 (Homo sapiens, UniProt P14780)
Assay: Inhibition of human recombinant MMP9 using Mca-Pro-Leu-Gly-Leu-Dpa-Ala-Arg-NH2 as substrate preincubated for 60 mins followed by substrate addition by fluorimetric analysis

SMILES STRUCTURE	U	RESULT COMPARATOR	IC50
CNC(=O)[C@H](Cc1c[nH]c2ccccc12)NC(=O)[C@@H](CC(=O)Nc1ccc(C(=O)c2ccccc2)cc1N)CC(C)C	µM	>	10
CNC(=O)[C@H](Cc1c[nH]c2ccccc12)NC(=O)[C@@H](CC(=O)Nc1ccccc1N)CC(C)C	µM	=	1.58
CNC(=O)[C@H](Cc1c[nH]c2ccccc12)NC(=O)[C@@H](CC(=O)Nc1ccc(C)cc1N)CC(C)C	µM	=	7.3
CNC(=O)[C@H](Cc1c[nH]c2ccccc12)NC(=O)[C@@H](CC(=O)Nc1ccc(C(F)(F)F)cc1N)CC(C)C	µM	>	10

###

Test: AUC (0 to infinity) in Sprague-Dawley rat at 10 mg/kg, po after 15 mins to 24 hrs by LC-MS/MS method
Assay type: ADME, organism-based
Parameters: dose 10 mg/kg, route oral, time infinity
Conditions: in vivo
MEASUREMENT TYPE: AUC(0-inf) (ng·h/mL)

SMILES STRUCTURE	MEASUREMENT TYPE	READING
CNC(=O)[C@H](Cc1c[nH]c2ccccc12)NC(=O)[C@@H](CC(=O)Nc1ccccc1N)CC(C)C	AUC(0-inf)	140
